The reported measurements were obtained from patent US20110123544A1.

Tested System: T1, recombinant human IL-12 (rhIL-12) (human, UniProt P29459 23-219; P29460 23-328)
T1 chain 1: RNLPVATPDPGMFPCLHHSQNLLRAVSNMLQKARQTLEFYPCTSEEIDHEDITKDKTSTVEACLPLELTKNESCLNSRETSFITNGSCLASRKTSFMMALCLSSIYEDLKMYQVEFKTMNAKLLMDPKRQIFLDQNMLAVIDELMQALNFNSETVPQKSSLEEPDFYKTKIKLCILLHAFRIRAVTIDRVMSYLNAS
T1 chain 2: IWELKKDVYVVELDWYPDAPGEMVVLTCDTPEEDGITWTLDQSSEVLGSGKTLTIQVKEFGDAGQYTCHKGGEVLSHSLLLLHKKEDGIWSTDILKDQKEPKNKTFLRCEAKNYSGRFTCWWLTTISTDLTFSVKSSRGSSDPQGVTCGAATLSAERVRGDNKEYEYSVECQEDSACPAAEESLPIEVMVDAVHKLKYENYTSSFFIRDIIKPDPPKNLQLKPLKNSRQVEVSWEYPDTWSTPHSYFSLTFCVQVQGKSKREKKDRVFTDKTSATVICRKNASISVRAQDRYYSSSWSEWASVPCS
Measurement Notes: BIAcore
Endpoint Label: koff
Answer format: value, then unit.

Reference set, count: 7
Binder | Recorded Value
QSYDTGTHPALL [Y61 L93 T] | 0.000316 s⁻¹
QSYDLGTHPALL [Y61 L93 L] | 0.0003 s⁻¹
QSYGRGTHPALL [Y61 L92 G] | 0.000349 s⁻¹
QSYDRWTHPALL [Y61 L94 W] | 0.000293 s⁻¹
QSYDAGTHPALL [Y61 L93 A] | 0.00031 s⁻¹
QSYCRGTHPALL [Y61 L92 C] | 0.000453 s⁻¹
QSYDRRTHPALL [Y61 L94 R] | 0.000231 s⁻¹

Next binder, koff to be filled in.
Tell me measured koff for QSYDPGTHPALL [Y61 L93 P] please. 0.000349 s⁻¹
